Just for reference, patent US20220411492A1 is where these values come from.

Target: T1, human Claudin 18.2 (hCLDN18.2) (human, UniProt P56856-2 1-261)
T1 construct: whole, on cells; also called CLDN18A2; claudin 18 splice variant 2
Assay: FACS, HEK293-hCLDN18.2 cells
Procedure: Following transient expression in mammalian cell lines, affinity assays were performed using HEK293-hCLDN18.2 cells and monoclonal cell supernatants were screened by FACS.
Observation type: Mean maximum fluorescence intensity (Top MFI)
Report the value in MFI with no unit label.

Asked: Suppose we examine the binder ch-253C4-G33A (antibody, V domains shown, also called chimeric antibody of 253C4-G33A) VH: QVQLKQSGAELVRPGASVSLSCKTSGYIFTSYWIHWVKQRSGQGLEWIGRFYPGTGTAYYNENFEGKATLTADRSSSTAYMQLSSLKSDDSAVYFCTREGYGKGNAMDYWGQGTSVTVSS VL: DIVMTQSPSSLTVTTGEKVTLSCKSSQSLLNSANQKNYLTWYQQKSGQPPELLIYWASTRESGVPDRFTGSGSGTDFTLTVSSVQAEDLAVYYCQNDYYFPFTFGGGTKLEIK ; what Mean maximum fluorescence intensity (Top MFI) value has been reported?
Given back: 6840

---
Asked: Suppose we examine the binder ch-253C4-S32A (antibody, V domains shown, also called chimeric antibody of 253C4-S32A) VH: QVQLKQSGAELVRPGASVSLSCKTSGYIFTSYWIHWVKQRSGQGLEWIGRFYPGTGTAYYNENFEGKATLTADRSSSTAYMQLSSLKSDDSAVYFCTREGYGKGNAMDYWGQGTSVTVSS VL: DIVMTQSPSSLTVTTGEKVTLSCKSSQSLLNAGNQKNYLTWYQQKSGQPPELLIYWASTRESGVPDRFTGSGSGTDFTLTVSSVQAEDLAVYYCQNDYYFPFTFGGGTKLEIK ; what Mean maximum fluorescence intensity (Top MFI) value has been reported?
Given back: 6890

Asked: Input ch-299B2-S32A (antibody, V domains shown, also called chimeric antibody of 299B2-S32A) VH: QVQLKQSGPELVRPGASVKLSCKTSGYIFTNYWIHWVKQRSGQGLEWVVRIYPGTGNTYYNEKFTGKATLTADKSSSTAYMQLSSLKYEDSAVYFCSREGYGKGNSMDYWGQGTSVTVSS VL: DIVMTQSPSSLTVTAGEKVTMNCKSSQSLLNAGNQKNYLTWYQQKPGQPPKLLFYWASTRESGVPDRFTGSGSGTDFTLTISSVQAEDLAVYHCQNAYYYPYTFGGGTKLEMK
Given back: 6500

Asked: Input ch-253C4-N31Q (antibody, V domains shown, also called chimeric antibody of 253C4-N31Q) VH: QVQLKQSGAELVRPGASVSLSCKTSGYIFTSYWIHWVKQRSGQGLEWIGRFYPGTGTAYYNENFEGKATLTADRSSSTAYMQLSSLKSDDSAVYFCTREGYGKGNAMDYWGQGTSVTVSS VL: DIVMTQSPSSLTVTTGEKVTLSCKSSQSLLQSGNQKNYLTWYQQKSGQPPELLIYWASTRESGVPDRFTGSGSGTDFTLTVSSVQAEDLAVYYCQNDYYFPFTFGGGTKLEIK
Given back: 6560

Asked: Input ch-299B2-G33A (antibody, V domains shown, also called chimeric antibody of 299B2-G33A) VH: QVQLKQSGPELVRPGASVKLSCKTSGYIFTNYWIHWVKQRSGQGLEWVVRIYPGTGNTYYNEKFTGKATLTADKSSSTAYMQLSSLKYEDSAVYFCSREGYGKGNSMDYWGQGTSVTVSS VL: DIVMTQSPSSLTVTAGEKVTMNCKSSQSLLNSANQKNYLTWYQQKPGQPPKLLFYWASTRESGVPDRFTGSGSGTDFTLTISSVQAEDLAVYHCQNAYYYPYTFGGGTKLEMK
Given back: 6870
